Just for reference, ChEMBL document CHEMBL3621140 is where these values come from.

Quick reference for CC50 at 48 h among some compounds
- TEST_SUMMARY: Cytotoxicity against HEK293T cells incubated for 48 hrs by MTT assay
- Assay type: cell-based, HEK-293T
- CONDITION_NOTES: human
RECORDED_METRIC: CC50 at 48 h

INSERT INTO results (compound, recorded_metric, result) VALUES
  ('Cc1ccccc1C1=NN(c2ccc(S(N)(=O)=O)cc2)C(c2cccc3ccccc23)C1 (centres undefined)', 'CC50 at 48 h', '51.2 µM'),
  ('NS(=O)(=O)c1ccc(N2N=C(c3ccccc3Cl)CC2c2cccc3ccccc23)cc1 (centres undefined)', 'CC50 at 48 h', '53.1 µM'),
  ('Cc1ccc(C2=NN(c3ccc(S(N)(=O)=O)cc3)C(c3ccc4ccccc4c3)C2)cc1 (centres undefined)', 'CC50 at 48 h', '53.1 µM'),
  ('NS(=O)(=O)c1ccc(N2N=C(c3ccccc3)CC2c2ccc3ccccc3c2)cc1 (centres undefined)', 'CC50 at 48 h', '50.5 µM'),
  ('Cc1cccc(C2=NN(c3ccc(S(N)(=O)=O)cc3)C(c3ccc4ccccc4c3)C2)c1 (centres undefined)', 'CC50 at 48 h', '52.4 µM'),
  ('CCOc1ccc(C2=NN(c3ccc(S(N)(=O)=O)cc3)C(c3cccc4ccccc34)C2)cc1 (centres undefined)', 'CC50 at 48 h', '59.5 µM'),
  ('COc1ccc(C2=NN(c3ccc(S(N)(=O)=O)cc3)C(c3ccc4ccccc4c3)C2)cc1 (centres undefined)', 'CC50 at 48 h', '45.4 µM'),
  ('Cc1cccc(C2=NN(c3ccc(S(N)(=O)=O)cc3)C(c3cccc4ccccc34)C2)c1 (centres undefined)', 'CC50 at 48 h', '48.2 µM'),
  ('NS(=O)(=O)c1ccc(N2N=C(c3ccc(F)cc3)CC2c2ccc3ccccc3c2)cc1 (centres undefined)', 'CC50 at 48 h', '49.5 µM'),
  ('COc1ccc(C2=NN(c3ccc(S(N)(=O)=O)cc3)C(c3cccc4ccccc34)C2)cc1 (centres undefined)', 'CC50 at 48 h', '47.1 µM'),
  ('COc1cccc(C2=NN(c3ccc(S(N)(=O)=O)cc3)C(c3cccc4ccccc34)C2)c1 (centres undefined)', 'CC50 at 48 h', '45.3 µM'),
  ('NS(=O)(=O)c1ccc(N2N=C(c3ccccc3)CC2c2cccc3ccccc23)cc1 (centres undefined)', 'CC50 at 48 h', '51.4 µM'),
  ('NS(=O)(=O)c1ccc(N2N=C(c3cccc(F)c3)CC2c2ccc3ccccc3c2)cc1 (centres undefined)', 'CC50 at 48 h', '49 µM'),
  ('NS(=O)(=O)c1ccc(N2N=C(c3ccc(Cl)cc3)CC2c2ccc3ccccc3c2)cc1 (centres undefined)', 'CC50 at 48 h', '54.8 µM'),
  ('NS(=O)(=O)c1ccc(N2N=C(c3cccc(Br)c3)CC2c2cccc3ccccc23)cc1 (centres undefined)', 'CC50 at 48 h', '42.2 µM'),
  ('Cc1ccc(C2=NN(c3ccc(S(N)(=O)=O)cc3)C(c3cccc4ccccc34)C2)c(C)c1 (centres undefined)', 'CC50 at 48 h', '52.5 µM'),
  ('NS(=O)(=O)c1ccc(N2N=C(c3ccc(Cl)cc3)CC2c2cccc3ccccc23)cc1 (centres undefined)', 'CC50 at 48 h', '49.2 µM'),
  ('Cc1ccccc1C1=NN(c2ccc(S(N)(=O)=O)cc2)C(c2ccc3ccccc3c2)C1 (centres undefined)', 'CC50 at 48 h', '51.7 µM'),
  ('CCOc1ccc(C2=NN(c3ccc(S(N)(=O)=O)cc3)C(c3ccc4ccccc4c3)C2)cc1 (centres undefined)', 'CC50 at 48 h', '53.8 µM');

###

Quick reference for pIC50 among some compounds
- System: HeLa
- TEST_SUMMARY: Antiproliferative activity against human HeLa cells incubated for 48 hrs by MTT assay
- Type: functional, cell-based
pIC50: −log10 of the molar value.
RECORDED_METRIC: pIC50

INSERT INTO measurements (compound, numeric_value) VALUES
  ('NS(=O)(=O)c1ccc(N2N=C(c3ccccc3Cl)CC2c2cccc3ccccc23)cc1 (centres undefined)', 4.54),
  ('Cc1ccc(C2=NN(c3ccc(S(N)(=O)=O)cc3)C(c3cccc4ccccc34)C2)c(C)c1 (centres undefined)', 4.92),
  ('Cc1ccc(C2=NN(c3ccc(S(N)(=O)=O)cc3)C(c3cccc4ccccc34)C2)cc1 (centres undefined)', 5.06),
  ('CCOc1ccc(C2=NN(c3ccc(S(N)(=O)=O)cc3)C(c3ccc4ccccc4c3)C2)cc1 (centres undefined)', 4.45),
  ('COc1ccc(C2=NN(c3ccc(S(N)(=O)=O)cc3)C(c3ccc4ccccc4c3)C2)cc1 (centres undefined)', 4.45),
  ('CCOc1ccc(C2=NN(c3ccc(S(N)(=O)=O)cc3)C(c3cccc4ccccc34)C2)cc1 (centres undefined)', 4.73),
  ('NS(=O)(=O)c1ccc(N2N=C(c3cccc(F)c3)CC2c2ccc3ccccc3c2)cc1 (centres undefined)', 4.68),
  ('NS(=O)(=O)c1ccc(N2N=C(c3ccc(Cl)cc3)CC2c2cccc3ccccc23)cc1 (centres undefined)', 4.94),
  ('NS(=O)(=O)c1ccc(N2N=C(c3ccc(F)cc3)CC2c2ccc3ccccc3c2)cc1 (centres undefined)', 4.58);

###

- Tested on: MCF7
- TEST_SUMMARY: Antiproliferative activity against human MCF7 cells incubated for 48 hrs by MTT assay
- Type: functional, cell-based
- CONDITION_NOTES: MCF7, 48 h
pIC50: −log10 of the molar value.
RECORDED_METRIC: pIC50

INSERT INTO assay_data (molecule, recorded_metric, numeric_value) VALUES
  ('NS(=O)(=O)c1ccc(N2N=C(c3ccc(F)cc3)CC2c2ccc3ccccc3c2)cc1 (configuration not stated)', 'pIC50', 4.91),
  ('NS(=O)(=O)c1ccc(N2N=C(c3cccc(Br)c3)CC2c2cccc3ccccc23)cc1 (configuration not stated)', 'pIC50', 4.54),
  ('NS(=O)(=O)c1ccc(N2N=C(c3cccc(I)c3)CC2c2cccc3ccccc23)cc1 (configuration not stated)', 'pIC50', 4.74),
  ('COc1cccc(C2=NN(c3ccc(S(N)(=O)=O)cc3)C(c3cccc4ccccc34)C2)c1 (configuration not stated)', 'pIC50', 4.58),
  ('NS(=O)(=O)c1ccc(N2N=C(c3cccc(I)c3)CC2c2ccc3ccccc3c2)cc1 (configuration not stated)', 'pIC50', 4.96),
  ('NS(=O)(=O)c1ccc(N2N=C(c3ccccc3)CC2c2ccc3ccccc3c2)cc1 (configuration not stated)', 'pIC50', 4.66),
  ('NS(=O)(=O)c1ccc(N2N=C(c3cccc(Br)c3)CC2c2ccc3ccccc3c2)cc1 (configuration not stated)', 'pIC50', 5.04),
  ('NS(=O)(=O)c1ccc(N2N=C(c3ccccc3Cl)CC2c2ccc3ccccc3c2)cc1 (configuration not stated)', 'pIC50', 5.06),
  ('NS(=O)(=O)c1ccc(N2N=C(c3cccc(F)c3)CC2c2ccc3ccccc3c2)cc1 (configuration not stated)', 'pIC50', 4.88),
  ('NS(=O)(=O)c1ccc(N2N=C(c3ccc(Cl)cc3)CC2c2cccc3ccccc23)cc1 (configuration not stated)', 'pIC50', 4.74),
  ('Cc1ccccc1C1=NN(c2ccc(S(N)(=O)=O)cc2)C(c2ccc3ccccc3c2)C1 (configuration not stated)', 'pIC50', 4.79),
  ('Cc1ccccc1C1=NN(c2ccc(S(N)(=O)=O)cc2)C(c2cccc3ccccc23)C1 (configuration not stated)', 'pIC50', 5.00);

###

- System: MCF7
- TEST_SUMMARY: Antiproliferative activity against human MCF7 cells incubated for 48 hrs by MTT assay
- Type: functional, cell-based
- CONDITION_NOTES: MCF7, 48 h
pIC50: −log10 of the molar value.
Quick reference for pIC50 among some compounds
RECORDED_METRIC: pIC50

INSERT INTO measurements (compound, numeric_value) VALUES
  ('COc1cccc(C2=NN(c3ccc(S(N)(=O)=O)cc3)C(c3ccc4ccccc4c3)C2)c1 (stereo not given)', 4.87),
  ('CCOc1ccc(C2=NN(c3ccc(S(N)(=O)=O)cc3)C(c3ccc4ccccc4c3)C2)cc1 (stereo not given)', 4.42),
  ('COc1ccc(C2=NN(c3ccc(S(N)(=O)=O)cc3)C(c3ccc4ccccc4c3)C2)cc1 (stereo not given)', 4.30),
  ('NS(=O)(=O)c1ccc(N2N=C(c3ccc(Cl)cc3)CC2c2ccc3ccccc3c2)cc1 (stereo not given)', 4.91),
  ('Cc1cccc(C2=NN(c3ccc(S(N)(=O)=O)cc3)C(c3cccc4ccccc34)C2)c1 (stereo not given)', 5.06);

###

Quick reference for pIC50 among some compounds
- System: HepG2
- TEST_SUMMARY: Antiproliferative activity against human HepG2 cells incubated for 48 hrs by MTT assay
- Type: functional, cell-based
- CONDITION_NOTES: HepG2, 48 h
pIC50: −log10 of the molar value.
RECORDED_METRIC: pIC50

INSERT INTO measurements (compound, numeric_value) VALUES
  ('NS(=O)(=O)c1ccc(N2N=C(c3ccc(F)cc3)CC2c2ccc3ccccc3c2)cc1 (configuration not stated)', 4.68),
  ('Cc1cccc(C2=NN(c3ccc(S(N)(=O)=O)cc3)C(c3ccc4ccccc4c3)C2)c1 (configuration not stated)', 5.11),
  ('Cc1ccc(-c2cc(C(F)(F)F)nn2-c2ccc(S(N)(=O)=O)cc2)cc1', 6.12),
  ('NS(=O)(=O)c1ccc(N2N=C(c3ccccc3Cl)CC2c2ccc3ccccc3c2)cc1 (configuration not stated)', 4.51),
  ('NS(=O)(=O)c1ccc(N2N=C(c3ccc(Cl)cc3)CC2c2cccc3ccccc23)cc1 (configuration not stated)', 4.78),
  ('COc1cccc(C2=NN(c3ccc(S(N)(=O)=O)cc3)C(c3ccc4ccccc4c3)C2)c1 (configuration not stated)', 4.58),
  ('NS(=O)(=O)c1ccc(N2N=C(c3cccc(Br)c3)CC2c2cccc3ccccc23)cc1 (configuration not stated)', 4.83);
